The entries below come with measured evaluation value of control effect (from control value, lesion area percentage) values attached.
System: barley powdery mildew fungus (Erysiphe graminis)
Assay: Test Example 2: control effect against barley powdery mildew by foliage application
Format: in vivo
Details: wettable powder diluted to 100 ppm, 10 mL per pot foliage spray on barley; inoculated day after; 7 days after inoculation
The answer should be a number; do not append a unit.

Known value: barley powdery mildew fungus (Erysiphe graminis) evaluation value of control effect (from control value, lesion area percentage) of the molecule Cc1nn(C)c(Cl)c1C(=O)N(C(=O)c1onc(Cl)c1Cl)c1cccc2c1C(C)OC2(C)C (centres unmarked) [25-124] equals 4

The value of evaluation value of control effect (from control value, lesion area percentage) recorded for CC(C)CC(C)c1ccccc1N(C(=O)c1cccnc1C(F)F)C(=O)c1snc(Cl)c1Cl (centres unmarked) [13-2] when tested on barley powdery mildew fungus (Erysiphe graminis) reads 5

For the molecule Cc1nc(C(F)(F)F)c(C(=O)N(C(=O)c2cn(C)nc2C(F)F)c2cccc3c2C(C)OC3(C)C)s1 (centres unmarked) [25-92] , the measured evaluation value of control effect (from control value, lesion area percentage) on barley powdery mildew fungus (Erysiphe graminis) was 4

# evaluation value of control effect (from control value, lesion area percentage) measured on barley powdery mildew fungus (Erysiphe graminis) for item Cc1nc(C(F)F)c(C(=O)N(C(=O)c2cn(C)nc2C(F)F)c2cccc3c2C(C)CC3(C)C)s1 (centres unmarked) [25-97] = 4

Recorded evaluation value of control effect (from control value, lesion area percentage) for CC1OC(C)(C)c2cccc(N(C(=O)c3cn(C)nc3C(F)F)C(=O)c3snc(Cl)c3Cl)c21 (centres unmarked) [25-10] on barley powdery mildew fungus (Erysiphe graminis) was 4

More entries:
# evaluation value of control effect (from control value, lesion area percentage) measured on barley powdery mildew fungus (Erysiphe graminis) for item Cc1nnsc1C(=O)N(C(=O)c1cn(C)nc1C(F)F)c1cccc2c1C(C)CC2(C)C (centres unmarked) [25-47] = 4

Fill in: barley powdery mildew fungus (Erysiphe graminis) evaluation value of control effect (from control value, lesion area percentage) for Cc1nnsc1C(=O)N(C(=O)c1cn(C)nc1C(F)F)c1ccsc1C(C)CC(C)C (centres unmarked) [5-23] = 5

Given the molecule CC(C)CC(C)c1sccc1N(C(=O)c1cn(C)nc1C(F)F)C(=O)c1snc(Cl)c1Cl (centres unmarked) [5-5] and test system barley powdery mildew fungus (Erysiphe graminis), the measured evaluation value of control effect (from control value, lesion area percentage) is 5
